Test: Cytotoxicity against KM mouse splenic lymphocytes assessed as growth inhibition after 72 hrs by MTT assay
Settings: Splenic lymphocyte
// values below are reported pIC50
Quick note: pIC50 values are minus log10 of concentrations in mol/L.

Examples with their reported pIC50 follow.
{"TEST_SMILES": "CC[C@]1(O)C[C@@H]2CN(CCc3c([nH]c4ccccc34)[C@@](C(=O)OC)(c3cc4c(cc3OC)N(C)[C@H]3[C@@](O)(C(=O)OC)[C@H](OC(C)=O)[C@]5(CC)C=CCN6CC[C@]43[C@@H]65)C2)C1", "pIC50": 8.80}
{"TEST_SMILES": "CC1(C)C(/C=C/c2cccc(C(F)(F)F)c2)=Nc2ccccc21", "pIC50": 4.44}
{"TEST_SMILES": "CC1(C)C(/C=C/c2ccc(C(F)(F)F)cc2)=Nc2ccccc21", "pIC50": 4.45}

Quick one: pIC50 of CC1(C)C(/C=C/c2cccc([N+](=O)[O-])c2)=Nc2ccccc21 ?
4.73

Quick one: pIC50 of CC1(C)C(/C=C/c2ccc([N+](=O)[O-])cc2)=Nc2ccccc21 ?
4.68

----------
Test system: HepG2
Assay: Cytotoxicity against adriamycin-resistant human HepG2 cells assessed as growth inhibition after 72 hrs by MTT assay
Assay type: functional, cell-based
Conditions: HepG2, 72 h
pIC50: −log10 of the molar value.
Tag: class 1 if measured pIC50 is not below 5, class 0 if it is.

Test whether the compound Cc1c(/C=C/C2=Nc3ccccc3C2(C)C)c2ccccc2n1C records pIC50 of 5 or higher.
class 1

Test whether the compound Cc1ccc(/C=C/C2=Nc3ccccc3C2(C)C)cc1 records pIC50 of 5 or higher.
class 0

Test whether the compound COc1ccc2[nH]cc(/C=C/C3=Nc4ccccc4C3(C)C)c2c1 records pIC50 of 5 or higher.
class 0

Test whether the compound Cc1[nH]c2ccccc2c1/C=C/C1=Nc2ccccc2C1(C)C records pIC50 of 5 or higher.
class 1

Test whether the compound CCN(CC)c1ccc(/C=C/C2=Nc3ccccc3C2(C)C)cc1 records pIC50 of 5 or higher.
class 0

Test whether the compound COc1ccc(/C=C/C2=Nc3ccccc3C2(C)C)cc1 records pIC50 of 5 or higher.
class 0

----------
Tested on: K562
Test: Cytotoxicity against human K562 cells assessed as growth inhibition after 72 hrs by MTT assay
Type: functional, cell-based
Conditions: K562, 72 h
MEASUREMENT_NAME: pIC50
Quick note: pIC50 values are minus log10 of concentrations in mol/L.

Quick one: pIC50 of COc1ccccc1/C=C/C1=Nc2ccccc2C1(C)C ?
4.64

----------
// values below are reported pIC50
System: HepG2
Assay: Cytotoxicity against adriamycin-resistant human HepG2 cells assessed as growth inhibition after 72 hrs by MTT assay
Format: functional, cell-based
Conditions: HepG2, 72 h
Quick note: pIC50 values are minus log10 of concentrations in mol/L.

Examples with their reported pIC50 follow.
{"TEST_SMILES": "CC1(C)C(/C=C/c2c[nH]c3ccccc23)=Nc2ccccc21", "NUMBER": 4.92}
{"TEST_SMILES": "CC1(C)C(/C=C/c2ccccc2[N+](=O)[O-])=Nc2ccccc21", "NUMBER": 5.01}

Quick one: pIC50 of CC1(C)C(/C=C/c2ccc(Br)cc2)=Nc2ccccc21 ?
5.00

----------
Tested on: K562
Test: Cytotoxicity against human K562 cells assessed as growth inhibition after 72 hrs by MTT assay
Type: functional, cell-based
Conditions: K562, 72 h
// classify: if (IC50 < 20 µM) true (1) else false (0)

{"MOLECULE": "COc1ccc2[nH]cc(/C=C/C3=Nc4ccccc4C3(C)C)c2c1", "CLASS_NAME": "true (1)"}
{"MOLECULE": "Cc1[nH]c2ccccc2c1/C=C/C1=Nc2ccccc2C1(C)C", "CLASS_NAME": "false (0)"}

Alright, here's another molecule for you.
Find out if reported IC50 for Cc1c(/C=C/C2=Nc3ccccc3C2(C)C)c2ccccc2n1C is less than 20 µM
false (0)

----------
Tested on: K562
Assay: Cytotoxicity against human K562 cells assessed as growth inhibition after 72 hrs by MTT assay
Assay type: functional, cell-based
Settings: K562, 72 h
// values below are reported pIC50
Quick note: pIC50 values are minus log10 of concentrations in mol/L.

Examples with their reported pIC50 follow.
{"COMPOUND": "CC1(C)C(/C=C/c2c[nH]c3cc(F)ccc23)=Nc2ccccc21", "pIC50": 4.70}
{"COMPOUND": "COc1ccc(/C=C/C2=Nc3ccccc3C2(C)C)cc1OC", "pIC50": 4.43}
{"COMPOUND": "COc1cccc(/C=C/C2=Nc3ccccc3C2(C)C)c1", "pIC50": 5.02}

Quick one: pIC50 of Cc1cccc(/C=C/C2=Nc3ccccc3C2(C)C)c1 ?
4.68

Quick one: pIC50 of CC1(C)C(/C=C/c2ccc([N+](=O)[O-])cc2)=Nc2ccccc21 ?
5.36

Quick one: pIC50 of CC1(C)C(/C=C/c2c[nH]c3ccc(Br)cc23)=Nc2ccccc21 ?
4.70

----------
// values below are reported pIC50
Tested on: K562
Experiment: Cytotoxicity against human K562 cells assessed as growth inhibition after 72 hrs by MTT assay
Format: functional, cell-based
Details: K562, 72 h
Quick note: pIC50 values are minus log10 of concentrations in mol/L.

Quick one: pIC50 of CC1(C)C(/C=C/c2c[nH]c3cccc(C#N)c23)=Nc2ccccc21 ?
4.80

Quick one: pIC50 of CCN(CC)c1ccc(/C=C/C2=Nc3ccccc3C2(C)C)cc1 ?
4.55

Quick one: pIC50 of Cn1cc(/C=C/C2=Nc3ccccc3C2(C)C)c2ccccc21 ?
4.68

Quick one: pIC50 of Cc1ccc2[nH]cc(/C=C/C3=Nc4ccccc4C3(C)C)c2c1 ?
4.67

----------
Test system: K562
Assay: Cytotoxicity against human K562 cells assessed as growth inhibition after 72 hrs by MTT assay
Type: functional, cell-based
Settings: K562, 72 h
MEASUREMENT_NAME: pIC50
Quick note: pIC50 values are minus log10 of concentrations in mol/L.

Examples with their reported pIC50 follow.
{"COMPOUND": "CN(C)c1ccc(/C=C/C2=Nc3ccccc3C2(C)C)cc1", "TARGET_SYSTEM": "K562", "pIC50": 4.59}
{"COMPOUND": "CC1(C)C(/C=C/c2c[nH]c3cc(Cl)ccc23)=Nc2ccccc21", "TARGET_SYSTEM": "K562", "pIC50": 4.88}
{"COMPOUND": "CC1(C)C(/C=C/c2ccc(C(F)(F)F)cc2)=Nc2ccccc21", "TARGET_SYSTEM": "K562", "pIC50": 5.05}

What is its pIC50 for K562? Entry: COc1cc(/C=C/C2=Nc3ccccc3C2(C)C)cc(OC)c1OC
4.82

What is its pIC50 for K562? Entry: CC1(C)C(/C=C/c2c[nH]c3c([N+](=O)[O-])cccc23)=Nc2ccccc21
4.68

What is its pIC50 for K562? Entry: Cc1ccc(/C=C/C2=Nc3ccccc3C2(C)C)cc1
4.58

What is its pIC50 for K562? Entry: CC1(C)C(/C=C/c2ccc(Br)cc2)=Nc2ccccc21
4.69

What is its pIC50 for K562? Entry: COc1ccc(/C=C/C2=Nc3ccccc3C2(C)C)cc1
4.70

What is its pIC50 for K562? Entry: CC1(C)C(/C=C/c2cccc(C(F)(F)F)c2)=Nc2ccccc21
5.01

What is its pIC50 for K562? Entry: CC1(C)C(/C=C/c2ccccc2[N+](=O)[O-])=Nc2ccccc21
4.89

----------
// values below are reported pIC50
Test system: K562
Test: Cytotoxicity against human K562 cells assessed as growth inhibition after 72 hrs by MTT assay
Assay type: functional, cell-based
Conditions: K562, 72 h
Where a name gives a salt, the structure may show the parent alone.
Quick note: pIC50 values are minus log10 of concentrations in mol/L.

Examples with their reported pIC50 follow.
{"COMPOUND": "CC[C@]1(O)C[C@@H]2CN(CCc3c([nH]c4ccccc34)[C@@](C(=O)OC)(c3cc4c(cc3OC)N(C)[C@H]3[C@@](O)(C(=O)OC)[C@H](OC(C)=O)[C@]5(CC)C=CCN6CC[C@]43[C@@H]65)C2)C1 [VINBLASTINE SULFATE]", "pIC50": 7.80}
{"COMPOUND": "CC1(C)C(/C=C/c2c[nH]c3ccccc23)=Nc2ccccc21", "pIC50": 4.64}

Quick one: pIC50 of CC1(C)C(/C=C/c2cccc([N+](=O)[O-])c2)=Nc2ccccc21 ?
5.36
